Overview of recorded MIC for various compounds
- Test system: Escherichia coli (ATCC25922)
- Procedure Summary: MIC, broth microdilution (CLSI), Escherichia coli ATCC25922
- Measurement Setup: ATCC25922, read-out: E. coli MIC, Table 15, NI = No inhibition

>>> assay_value("CN(C)CCCN1c2ccccc2Sc2cc(-c3ccnc(F)c3)ccc21")
"> 100 µg/mL"
>>> assay_value("Nc1cc(C(F)(F)F)cc2c1Nc1ccccc1S2")
"> 100 µg/mL"

Escherichia coli (ATCC25922) data for CN(C)CCCN1c2ccccc2Sc2cc(Cl)cc(N)c21 ; its MIC: > 100 µg/mL

====

- System: Escherichia coli (ATCC25922)
- Procedure Summary: MIC, broth microdilution (CLSI), Escherichia coli ATCC25922
- Measurement Setup: ATCC25922, read-out: E. coli MIC, Table 15, NI = No inhibition
Property Name: MIC (µg/mL)

>>> assay_value("FC(F)(F)c1cc(NC2CCNCC2)c2c(c1)Sc1cc(Cl)ccc1N2")
6
>>> assay_value("CC1CCCN(c2ccc3c(c2)Sc2cc(C(F)(F)F)cc(NC(=O)CCNCCN)c2N3)C1.Cl.Cl (stereo not shown)")
64
>>> assay_value("Cl.NCCNCCCNc1cc(C(F)(F)F)cc2c1Nc1ccc(Br)cc1S2")
8
>>> assay_value("CCOC(=O)c1ccc2c(c1)Sc1cc(Br)ccc1N2CCCN")
32
>>> assay_value("Cl.Cl.NCCN1CCC(Nc2cc(C(F)(F)F)cc3c2Nc2ccc(N4CCC(N)CC4)cc2S3)CC1")
32

I = NCCN1CCCC(CNc2cc(C(F)(F)F)cc3c2Nc2ccccc2S3)C1 (stereo not shown)
II = NC1CCC(CNc2cc(C(F)(F)F)cc3c2Nc2ccccc2S3)CC1 (stereo not shown)
For I and II , which recorded MIC is lower? Kindly give the label for the entry you pick.
I
